Biological target: WT EML4-ALK (NIH-3T3 EML4-ALK wt v1 cells) (Homo sapiens, UniProt Q9UM73)
Construct: expressed in transfected cells; the other entry of the earlier key: EML4 (Q9HC35, Echinoderm microtubule-associated protein-like 4)
Test: Cellular phospho-ALK (Tyr1604) ELISA assay for WT EML4-ALK
Format: cell-based
Conditions: ELISA assay for WT EML4-ALK (IC50), 1 hour
Assay Readout: IC50
Value and unit, in that order.

Print WT EML4-ALK (NIH-3T3 EML4-ALK wt v1 cells) (Homo sapiens, UniProt Q9UM73) IC50 for `Cc1cnc2nc3c(n2c1)-c1cnc(N)c(c1)O[C@H](C)c1cc(F)ccc1C(=O)N(C)C3` . 6.79 nM

====

Entries and their pIC50 values follow.
Target: L1196M EML4-ALK (NIH-3T3 EML4-ALK v1 L1196M cells) (Homo sapiens, UniProt Q9UM73, L1196M)
Construct: expressed in transfected cells; the other entry of the earlier key: EML4 (Q9HC35, Echinoderm microtubule-associated protein-like 4)
Assay: Cellular phospho-ALK (Tyr1604) ELISA assay for L1196M EML4-ALK
Assay type: cell-based
Conditions: NIH-3T3 EML4-ALK v1 L1196M cells, 1 hour, phospho-ALK (Tyr1604); read-out: ELISA assay for L1196M EML4-ALK (IC50)
Kindly note that pIC50 refers to -log10 of the concentration in mol/L and answer with the value alone.

Worked cases, answers included:
| Molecule | Assay Readout | Recorded Value |
| --- | --- | --- |
| CN1Cc2nn(C)c(C#N)c2-c2cnc(N)c(n2)OCc2cc(F)ccc2C1=O | pIC50 | 7.35 |
| CC1Cc2cc(cnc2N)-c2c(nn(C)c2C#N)CN(C)C(=O)c2ccc(F)cc21 (single isomer, unassigned) [Example 63] | pIC50 | 8.06 |
| C[C@H]1Oc2cc(cnc2N)-c2c(nn(C)c2C#N)CN(C)C(=O)c2ccccc21 | pIC50 | 6.77 |

Output pIC50 of CC1Cc2cc(cnc2N)-c2c(nn(C)c2C#N)CN(C)C(=O)c2ccc(F)cc21 (single isomer, unassigned) [Example 64] 5.92

====

Molecular target: human recombinant wild-type ALK kinase domain (amino acids 1093-1411) (Homo sapiens)
Construct: ALK kinase domain (amino acids 1093-1411); made in house
Assay: Wild-type ALK enzyme assay (microfluidic mobility shift)
Assay type: biochemical
Conditions: ATP 60 μM, competitive inhibition fit, read-out: WT ALK enzyme assay (Ki)
Entries and their Ki values follow.

Worked cases, answers included:
| Compound | Ki |
| --- | --- |
| COc1cnc2cc1-c1cnc(N)c(c1)O[C@H](C)c1cc(F)ccc1C(=O)N(C)CC2 | > 1500 nM |
| CC1Oc2nc(cnc2N)-c2c(nn(C)c2C#N)COCc2ccc(F)cc21 (single isomer, unassigned) [Example 106] | > 3000 nM |

Please find the next compound below.
Print human recombinant wild-type ALK kinase domain (amino acids 1093-1411) (Homo sapiens) Ki for `C[C@H]1Oc2nc(cnc2N)-c2c(nn(C)c2C#N)CN(C2CC2)C(=O)c2ccc(F)cc21` . < 0.07 nM

====

Molecular target: human recombinant L1196M ALK kinase domain (amino acids 1093-1411) (Homo sapiens, UniProt Q9UM73, L1196M)
Construct: ALK kinase domain (amino acids 1093-1411); made in house
Assay: L1196M mutant ALK enzyme assay (microfluidic mobility shift)
Type: biochemical
Conditions: ATP 60 μM, 0.5 nM enzyme, competitive inhibition fit; read-out: L1196M ALK enzyme assay (Ki)
Entries and their Ki values follow.
Report as a plain number; the unit nM is understood.

Worked cases, answers included:
| Compound | Ki [nM] |
| --- | --- |
| C[C@H]1Oc2nc(cnc2N)-c2c(nn(C)c2C#N)CNC(=O)c2ccc(F)cc21 | 1.41 |
| CC1c2nn(C)c(C#N)c2-c2cnc(N)c(n2)OCc2cc(F)ccc2C(=O)N1C (stereo not shown) [Example 78] | 9.61 |
| CC1Oc2nc(cnc2N)-c2c(C#N)nn3c2C(CC3)N(C)C(=O)c2ccc(F)cc21 (stereo not shown) [Example 75] | 0.095 |
| C[C@H]1Oc2cc(cnc2N)-c2c(C#N)nn(C)c2CN(C)C(=O)c2ccc(F)cc21 | 1.36 |
| CCc1onc2c1-c1cnc(N)c(c1)O[C@H](C)c1cc(F)ccc1C(=O)N(C)C2 | 2.39 |
| C[C@H]1Oc2nc(cnc2N)-c2c(nn(C3COC3)c2C#N)CN(C)C(=O)c2ccc(F)cc21 | 0.3 |
| CC1c2nn(C)c(C#N)c2-c2cnc(N)c(n2)OCc2cc(F)ccc2C(=O)N1C (single isomer, unassigned) [Example 79] | 2.9 |
| C[C@H]1Oc2nc(cnc2N)-c2c(C#N)nn(C)c2CN(C)C(=O)c2ccc(F)cc21 | 0.09 |
| CC1Oc2cc(F)ccc2C(=O)N(C)Cc2nn(C)c(C#N)c2-c2cnc(N)c1c2 (single isomer, unassigned) [Example 77] | 45.8 |
| COc1nccc2c1-c1cnc(N)c(n1)OC(C)c1cc(F)ccc1C(=O)N(C)C2 (single isomer, unassigned) [Example 30] | 0.67 |

Please find the next compound below.
Output Ki of `C[C@H]1Oc2nc(cnc2N)-c2c(nn(C)c2C#N)CN(C)C(=O)c2ccccc21` 0.96

====

Target: human recombinant wild-type ALK kinase domain (amino acids 1093-1411) (Homo sapiens)
Construct: ALK kinase domain (amino acids 1093-1411); made in house
Assay: Wild-type ALK enzyme assay (microfluidic mobility shift)
Format: biochemical
Conditions: ATP 60 μM, competitive inhibition fit, read-out: WT ALK enzyme assay (Ki)
pKi: −log10 of the molar value.
Entries and their pKi values follow.

Worked cases, answers included:
| Compound | Experimental Target | pKi |
| --- | --- | --- |
| C[C@H]1Oc2cc(cnc2N)-c2c(nn(C)c2C#N)CN(C)Cc2ccc(F)cc21 [Example 36] | human recombinant wild-type ALK kinase domain (amino acids 1093-1411) (Homo sapiens) | > 9.70 |
| C[C@H]1Oc2nc(cnc2N)-c2c(C#N)nn(C)c2CN(C)C(=O)c2ccc(F)cc21 [Example 115] | human recombinant wild-type ALK kinase domain (amino acids 1093-1411) (Homo sapiens) | > 10.10 |

Please find the next compound below.
Print human recombinant wild-type ALK kinase domain (amino acids 1093-1411) (Homo sapiens) pKi for C[C@H]1Oc2cc(cnc2N)-c2cc(S(C)(=O)=O)ccc2CN(C)Cc2ccc(F)cc21 [Example 35] . > 9.58

====

Target: L1196M EML4-ALK (NIH-3T3 EML4-ALK v1 L1196M cells) (Homo sapiens, UniProt Q9UM73, L1196M)
Construct: expressed in transfected cells; the other entry of the earlier key: EML4 (Q9HC35, Echinoderm microtubule-associated protein-like 4)
Test: Cellular phospho-ALK (Tyr1604) ELISA assay for L1196M EML4-ALK
Assay type: cell-based
Conditions: NIH-3T3 EML4-ALK v1 L1196M cells, 1 hour, phospho-ALK (Tyr1604); read-out: ELISA assay for L1196M EML4-ALK (IC50)
Assay Readout: IC50 (nM)
Report as a plain number; the unit nM is understood.

Worked cases, answers included:
| Compound | Units | IC50 |
| --- | --- | --- |
| CC1c2nn(C)c(C#N)c2-c2cnc(N)c(n2)OCc2cc(F)ccc2C(=O)N1C (stereo not shown) [Example 78] | nM | 350 |
| CC1Oc2cc(cnc2N)-c2ccccc2CN(C)C(=O)c2ccc(F)cc21 (stereo not shown) | nM | 680 |
| C[C@H]1Oc2cc(cnc2N)-c2c(nnn2CC2CCC2)CN(C)C(=O)c2ccc(F)cc21 | nM | 814 |

Print L1196M EML4-ALK (NIH-3T3 EML4-ALK v1 L1196M cells) (Homo sapiens, UniProt Q9UM73, L1196M) IC50 for COc1nn(C)c2c1-c1cnc(N)c(c1)OC(CF)c1cc(F)ccc1C(=O)N(C)C2 (single isomer, unassigned) . 2.57

Print L1196M EML4-ALK (NIH-3T3 EML4-ALK v1 L1196M cells) (Homo sapiens, UniProt Q9UM73, L1196M) IC50 for `C[C@H]1Oc2cc(cnc2N)-c2c(nn(C)c2C#N)CN(C2CC2)C(=O)c2ccc(F)cc21` . 13.4

Print L1196M EML4-ALK (NIH-3T3 EML4-ALK v1 L1196M cells) (Homo sapiens, UniProt Q9UM73, L1196M) IC50 for CC1Cc2cc(cnc2N)-c2c(nn(C)c2C#N)CN(C)C(=O)c2ccc(F)cc21 (stereo not shown) [Example 61] . 17.1

Print L1196M EML4-ALK (NIH-3T3 EML4-ALK v1 L1196M cells) (Homo sapiens, UniProt Q9UM73, L1196M) IC50 for `CN1Cc2ccccc2-c2cnc(N)c(c2)OCc2cc(F)ccc2C1=O` . 2680

Print L1196M EML4-ALK (NIH-3T3 EML4-ALK v1 L1196M cells) (Homo sapiens, UniProt Q9UM73, L1196M) IC50 for COc1nccc2c1-c1cnc(N)c(n1)OC(C)c1cc(F)ccc1C(=O)N(C)C2 (single isomer, unassigned) [Example 30] . 67.2

Print L1196M EML4-ALK (NIH-3T3 EML4-ALK v1 L1196M cells) (Homo sapiens, UniProt Q9UM73, L1196M) IC50 for `C[C@H]1Oc2nc(cnc2N)-c2c(nn(C)c2C#N)CN(C)C(=O)c2c(F)cc(F)cc21` . 8.77
